Biological target: T1, His9G-tagged cynomolgus CD27 recombinant protein (cynomolgus, limits assumed)
T1 construct: In-house, transient transfection of HEK293 cells; also called Cyno CD27/His
T1 chain: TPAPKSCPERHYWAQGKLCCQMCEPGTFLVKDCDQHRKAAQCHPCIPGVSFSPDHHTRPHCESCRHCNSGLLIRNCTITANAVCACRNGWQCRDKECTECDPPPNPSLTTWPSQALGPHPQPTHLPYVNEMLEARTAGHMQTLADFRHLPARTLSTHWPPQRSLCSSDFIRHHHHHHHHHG
Test: SPR Biacore 4000, antibody captured on anti-human Fc, His9G-tagged CD27 injected, 1:1 fit;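 also: Double-referenced SPR (blank anti-Fc surface and buffer injection subtracted), KD derived from association and dissociation rate constants, with human and cynomolgus CD27 as analytes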
Assay metric: Kd (nM)
Please give a number only; it is taken to be in nM.

[[record]]
binder = "hCD27.131A VH8VL8 huIgG4 (antibody, V domains shown) VH: EIQLVQSGAEVKKPGASVKVSCKASGYTFTNYGMNWVKQAPGQGLKWMGWINTNTGEPTYAEEFKGRFTFTLDTSISTAYMELSSLRNEDTAVYYCAREGDAMDYWGQGTTVTVSS VL: EIVLTQSPATLSASPGERVTLSCSASSSVSYMHWYQQKPGQAPKRWIYDTSKLASGVPARFSGSGSGTDYSLTISSMEPEDFAVYYCQQWNSYPFTFGQGTKLEIK"
display_unit = "nM"
endpoint_value = 96.7


Req: Fill in Kd for record Mouse Human Chimera CD27 131A-hIgG1 (antibody, V domains shown, also called chimeric mouse-human hCD27.131A huIgG1) VH: QIQLVQSGPELKKPGETVKISCKASGYTFTNYGMNWVKQAPGKGLKWMGWINTNTGEPTYAEEFKGRFAFSLETSATTAYLQINNLKNEDTATYFCAREGDAMDYWGQGTSVTVSS VL: QIVLTQSPAIMSASPGEKVTMTCSASSSVSYMHWYQQKSGTSPKRWIYDTSKLASGVPARFSGSGSGTSYSLTISSMEAEDAATYYCQQWNSYPFTFGSGTKLEIK
Resp: 40.4

Entry source: patent US20180086841A1
